protocol.notes: Final pH and average osmolality of API Captisol formulations and API salt solutions
setup.conditions: CapAcid-API Freebase Formulation (70 mg/mL API FB, 1.1 molar equiv CapAcid)
Parameter threshold = 200 mOsm/kg. Response is true (1) when Osmolality meets or exceeds it, else false (0).

As a guide, the following entries are already answered.
[
  {
    "compound": "CNS(=O)(=O)Cc1ccc2[nH]cc(CCN(C)C)c2c1 [Sumatriptan, reference compound]",
    "label.value": "false (0)"
  },
  {
    "compound": "CNC(C)Cc1cccc(F)c1 (stereo not drawn)",
    "label.value": "true (1)"
  },
  {
    "compound": "CNC(C)C(=O)c1cccc(C)c1 (stereo not drawn)",
    "label.value": "true (1)"
  },
  {
    "compound": "CNC1(c2ccccc2F)CCCCC1=O (stereo not drawn)",
    "label.value": "true (1)"
  },
  {
    "compound": "CNC1(c2ccccc2)CCCCC1=O (stereo not drawn)",
    "label.value": "true (1)"
  },
  {
    "compound": "CN1CC[C@]23c4c5ccc(O)c4O[C@H]2[C@@H](O)C=C[C@H]3[C@H]1C5 [Morphine, reference compound]",
    "label.value": "false (0)"
  }
]

Ask: hey, is Osmolality for this one >= 200 mOsm/kg? NC1Cc2ccc(I)cc2C1 (stereo not drawn) [Example 5-IAI, 5-iodo-2,3-dihydro-JH-inden-2-amine]
Reply: false (0)

Ask: hey, is Osmolality for this one >= 200 mOsm/kg? CCN(CC)CC(=O)Nc1c(C)cccc1C [Lidocaine, reference compound]
Reply: true (1)

Ask: hey, is Osmolality for this one >= 200 mOsm/kg? COc1ccc2c(c1)[C@]13CCCC[C@@H]1[C@H](C2)N(C)CC3 [DXM, dextromethorphan, reference compound]
Reply: false (0)

Ask: hey, is Osmolality for this one >= 200 mOsm/kg? Cc1cccc(C(=O)C(C)N(C)C)c1 (stereo not drawn)
Reply: true (1)

Ask: hey, is Osmolality for this one >= 200 mOsm/kg? CNC(C)Cc1ccc2occc2c1 (stereo not drawn)
Reply: true (1)

###

protocol.notes: Theoretical vs measured osmolarities of API-Cap formulations
Assay type: physicochemical
setup.conditions: API-Cap Formulations at 70 mg/mL freebase equivalents
Answer each item with its documented Measured Osmolality.
One number for each entry, in mOsmol/L.

// known answers, use as guide
[
  {
    "compound": "CNC1(c2ccccc2Cl)CCCCC1=O (stereo not shown) [Ketamine]",
    "quantity.unit": "mOsmol/L",
    "Measured Osmolality": 291
  },
  {
    "compound": "CNS(=O)(=O)Cc1ccc2[nH]cc(CCN(C)C)c2c1 [Sumatriptan, reference compound]",
    "quantity.unit": "mOsmol/L",
    "Measured Osmolality": 109
  },
  {
    "compound": "CNC(C)C(=O)c1cccc(C)c1 (stereo not shown) [Example 3-MMC, 2-(methylamino)-1-(m-tolyl)propan-1-one]",
    "quantity.unit": "mOsmol/L",
    "Measured Osmolality": 312
  }
]

// switching to the query compound
Ask: May I ask what Measured Osmolality has been recorded for Cc1cccc(C(=O)C(C)N(C)C)c1 (stereo not shown) [Me-3-MMC] ?
Reply: 321

###

protocol.notes: Theoretical vs measured osmolarities of API-Cap formulations
Type: physicochemical
setup.conditions: measured osmolality vs calculated osmolarity, API-Cap Formulations at 70 mg/mL freebase equivalents
parameter.measured: Percentage of Theoretical (%)
Give bare numbers, in %.

[
  {
    "molecule": "CNC1(c2ccccc2)CCCCC1=O (stereo not drawn) [DCK, 2-(methylamino)-2-phenylcyclohexan-1-one]",
    "Percentage of Theoretical / %": 77.1
  },
  {
    "molecule": "CN1CC[C@]23c4c5ccc(O)c4O[C@H]2[C@@H](O)C=C[C@H]3[C@H]1C5 [Morphine, reference compound]",
    "Percentage of Theoretical / %": 57.9
  },
  {
    "molecule": "CCN(CC)CC(=O)Nc1c(C)cccc1C [Lidocaine, reference compound]",
    "Percentage of Theoretical / %": 87.0
  },
  {
    "molecule": "CNC1(c2ccccc2F)CCCCC1=O (stereo not drawn) [Example 2-F-DCK]",
    "Percentage of Theoretical / %": 100.9
  },
  {
    "molecule": "CN1CCC[C@H]1c1cccnc1 [Nicotine, S-(−)-nicotine, reference compound]",
    "Percentage of Theoretical / %": 110.1
  }
]

// switching to the query molecule
Ask: May I ask what Percentage of Theoretical has been recorded for CNC1(c2ccccc2Cl)CCCCC1=O (stereo not drawn) [Ketamine] ?
Reply: 84.6
